TESTED_TARGET: HCV polymerase (NS5B) type 1b (Hepatitis C virus genotype 1b, UniProt P26663)
Construct: a region encoding NS5B (J Virol 1991 March, 65(3), 1105-13, 544 amino acids after deletion of 47 amino acids on the C-terminal); 6xHis (C); made in house; host or cells: Escherichia coli
Sequence (P26663 2420-2963): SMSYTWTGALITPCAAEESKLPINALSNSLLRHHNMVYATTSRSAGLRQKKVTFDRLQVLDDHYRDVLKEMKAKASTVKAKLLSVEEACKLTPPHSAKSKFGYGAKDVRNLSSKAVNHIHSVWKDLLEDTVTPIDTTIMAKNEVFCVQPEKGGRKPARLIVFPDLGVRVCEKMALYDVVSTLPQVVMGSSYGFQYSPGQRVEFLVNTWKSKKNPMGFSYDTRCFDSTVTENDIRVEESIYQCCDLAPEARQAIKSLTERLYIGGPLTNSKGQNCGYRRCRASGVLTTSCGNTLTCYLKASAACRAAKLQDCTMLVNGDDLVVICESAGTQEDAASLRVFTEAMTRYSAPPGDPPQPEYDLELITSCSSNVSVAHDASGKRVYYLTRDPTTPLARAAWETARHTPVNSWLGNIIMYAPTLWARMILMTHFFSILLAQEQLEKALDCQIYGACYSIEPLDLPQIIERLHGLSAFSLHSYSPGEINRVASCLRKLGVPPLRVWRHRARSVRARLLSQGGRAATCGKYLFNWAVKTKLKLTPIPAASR
TEST_SUMMARY: Assay of enzyme (HCV polymerase) inhibitory activity, type 1b enzyme
Format: biochemical, HCV BK strain (type 1b)
TEST_CONDITIONS: HCV polymerase inhibitory activity (IC50), 1b, type 1b enzyme 0.5 μg/ml, 25° C., 60 min
Where a name gives a salt, the structure may show the parent alone.
Recorded IC50 values for a group of molecules are listed next.
MEASUREMENT_NAME: IC50

MOLECULE	RESULT
CC(=O)N1CCN(S(=O)(=O)c2ccc(CC(=O)O)s2)[C@@H](C(=O)NCc2ccc(C(C)C)cc2)C1	> 1000 nM
CC(=O)N1CCN(S(=O)(=O)c2ccc(C(C)C)cc2)[C@@H](C(=O)NCc2ccc(Br)cc2Cl)C1	100 to 1000 nM
CC(C)c1ccc(CNC(=O)[C@H]2CNCCN2S(=O)(=O)c2ccc(C(F)(F)F)cc2)cc1 [Example 1, hydrochloride]	> 1000 nM
CC(=O)N1CCN(S(=O)(=O)c2ccc3ccccc3c2)C(C(=O)NCc2ccc(C(F)(F)F)cc2)C1 (stereo not drawn)	> 1000 nM
CC(C)(C)c1ccc(CNC(=O)[C@H]2CN(c3cnc(CO)cn3)CCN2S(=O)(=O)c2ccc(OC(F)(F)F)cc2)cc1	< 100 nM
CC(C)c1ccc(CNC(=O)[C@H]2CN(C(=O)Nc3cccc(C(=O)O)c3)CCN2S(=O)(=O)c2ccc(C(F)(F)F)cc2)cc1	100 to 1000 nM
CCCc1ccc(CNC(=O)[C@H]2CN(c3ccc(C(=O)O)cc3)CCN2S(=O)(=O)c2ccc(OC(F)(F)F)cc2)cc1	< 100 nM
CCc1ccc(S(=O)(=O)N2CCN(C(C)=O)CC2C(=O)NCc2ccc(C(F)(F)F)cc2)cc1 (stereo not drawn)	> 1000 nM
CC(=O)N1CCN(S(=O)(=O)c2ccc(C(C)C)cc2)[C@@H](C(=O)NCc2ccc(C(C)(C)C(=O)O)cc2)C1	> 1000 nM
